molecular target: Muscarinic acetylcholine receptor M5 (Homo sapiens) (UniProt P08912); assay: human M5 muscarinic receptor antagonists, primary screen, CHO cells, Fluo-8 calcium fluorescence (AID 624040); details: CHO-hM5 cells, ACh EC80, at 3 µM, hits give high values;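 further: 0% = acetylcholine EC80 with DMSO and 100% = DMSO without agonist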
Sequence (P08912 whole entry, looked up): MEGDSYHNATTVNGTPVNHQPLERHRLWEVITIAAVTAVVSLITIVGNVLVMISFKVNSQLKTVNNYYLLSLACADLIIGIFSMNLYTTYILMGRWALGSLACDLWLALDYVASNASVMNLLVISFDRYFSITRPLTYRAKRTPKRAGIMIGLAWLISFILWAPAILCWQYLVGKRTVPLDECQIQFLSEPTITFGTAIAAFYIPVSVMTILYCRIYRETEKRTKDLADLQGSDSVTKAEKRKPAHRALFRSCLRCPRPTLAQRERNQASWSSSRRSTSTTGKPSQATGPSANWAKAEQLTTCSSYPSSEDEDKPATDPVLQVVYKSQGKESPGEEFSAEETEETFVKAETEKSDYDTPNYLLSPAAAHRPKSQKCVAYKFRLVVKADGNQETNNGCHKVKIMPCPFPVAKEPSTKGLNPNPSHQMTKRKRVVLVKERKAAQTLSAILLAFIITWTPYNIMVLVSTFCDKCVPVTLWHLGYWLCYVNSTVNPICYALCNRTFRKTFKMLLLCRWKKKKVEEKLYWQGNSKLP
Among all 360,000 compounds or so, about 2,100 (0.58%) were called active. The sample as a whole holds a higher share of actives than the screen did.
quantity kind: inhibition (%)
Give the number; % is assumed, so skip it.

Input line: Query (molecule): CCOC(=O)N1CCC(NC(=O)Cn2cc3c(n2)CCCCC3)CC1 ; field requested: inhibition
Output line: 0.05

Input line: Tell me the measured inhibition of CCc1ccc(CNC(=O)C2CCN(c3nnc(C)c4c(C)n(-c5ccc(C)cc5)nc34)CC2)cc1 , please.
Output line: 0.33

Input line: Which inhibition is listed for O=C1C(Cl)=C(Oc2ccccc2)C(=O)c2ccccc21 ?
Output line: 30.4

Input line: Any idea what inhibition was measured for Cc1cc(C(F)(F)F)nn1CC(=O)N1CCCC1 ?
Output line: -0.38

New cases:
Input line: What measured inhibition goes with CC(C)S(=O)(=O)c1csc(NC(=O)Nc2ccc(Cl)cc2)c1Cl ?
Output line: 37.3

Input line: What inhibition value was documented for this molecule, Cc1ccccc1NS(=O)(=O)CCCCC(Cl)(Cl)Cl ?
Output line: 3.5

###

molecular target: Muscarinic acetylcholine receptor M5 (Homo sapiens) (UniProt P08912); assay: human M5 muscarinic receptor antagonists, primary screen, CHO cells, Fluo-8 calcium fluorescence (AID 624040); details: CHO-hM5 cells, ACh EC80, at 3 µM, hits give high values;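 further: 0% = acetylcholine EC80 with DMSO and 100% = DMSO without agonist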
The whole screen tested about 360,000 compounds, of which about 2,100 (0.58%) were called active. The entries come from a sample that favours actives as a whole.
Documented inhibition across a set of compounds
I only need the number, in %, no unit after it.

The examples below pair each entry with its known result.
Input line: Entry under review: CC(C)c1ccc2oc(=O)cc(CN3CCN(Cc4ccccc4)CC3)c2c1 . Reported inhibition?
Output line: 27.9

Input line: What does the record list as inhibition for CC(=O)OC(C)C[N+](C)(C)C (stereo unspecified) ?
Output line: 95.7

Input line: Recorded inhibition of Cc1ccc2cc(CCNC(=O)c3ccc4c(c3)OCO4)c(=O)[nH]c2c1 , please.
Output line: -4.27

***
Input line: What value of measured inhibition is listed for CC(=O)OCC(COC(C)=O)OC(C)=O ?
Output line: -2.99

Input line: Looking for the measured inhibition of CC(C[N+](C)(C)C)OC(N)=O (stereo unspecified) , can you help?
Output line: 74.8

Input line: Sample Cc1cc2oc(=O)cc(CN3CCN(S(=O)(=O)c4cccs4)CC3)c2cc1C(C)C — what was its inhibition?
Output line: 6.3

###

molecular target: Muscarinic acetylcholine receptor M5 (Homo sapiens) (UniProt P08912); assay: human M5 muscarinic receptor antagonists, primary screen, CHO cells, Fluo-8 calcium fluorescence (AID 624040); details: CHO-hM5 cells, ACh EC80, at 3 µM;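 further: 0% = acetylcholine EC80 with DMSO and 100% = DMSO without agonist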
The whole screen tested about 360,000 compounds, of which about 2,100 (0.58%) were called active.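 How the source made its calls: active means inhibition above a per-plate cutoff, the mean of that plate's test compounds plus 3 SD (cut at about 27% in these data); inactive means the rest.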 This excerpt belongs to a sample that is enriched for actives.
Write down one outcome, taken from 1 = active, 0 = inactive

Answered cases to consult:
Input line: Write down the call the test reported for this compound. Item: O=C(NC(=S)NC1CCS(=O)(=O)C1)c1cccc([N+](=O)[O-])c1 (stereo unspecified)
Output line: 0

Input line: Entry CN(C)C(=O)c1ccc2c(c1)C1C3CCC(C3)C1C(c1ccccc1)N2 (stereo unspecified) : call = ?
Output line: 0

Input line: Write down the call the test reported for this compound. Item: COc1ccc(CN(C)C(=O)Cc2ccsc2)c(OC)c1OC
Output line: 0

Input line: Hey, what did the test say about COc1ccc(-c2cc(C(=O)N(C)Cc3ccc(OC)c(OC)c3OC)c3ccccc3n2)cc1OC ?
Output line: 1

Input line: Answer briefly: the call reported for CCN1CCN(C(=O)/C=C\C(=O)O)CC1 in this assay.
Output line: 0

Further cases:
Input line: Write down the call the test reported for this compound. Item: Cc1ccc(NC(=O)c2sccc2C)cc1[N+](=O)[O-]
Output line: 0

Input line: I would be grateful if you could indicate the recorded call for CN(CC(=O)Nc1cccc(F)c1)C(=O)C1=COCCO1 .
Output line: 0

Input line: Which outcome did this test record for the compound C=C(C)c1cccc(C(C)(C)NC(=O)NC2CCCC2)c1 ?
Output line: 0

Input line: Please state the recorded outcome for this compound: C=C(C)c1cccc(C(C)(C)NC(=O)NCCN(CC)CC)c1
Output line: 1

Input line: Dear colleague, could you share the recorded outcome for O=C(Nc1ccc(Cl)cn1)Nc1cccs1 when you have a moment?
Output line: 1

Input line: Could you please tell me the result logged for CC(Sc1sc(=S)sc1SC(C)C(=O)O)C(=O)O (stereo unspecified) in this assay?
Output line: 0

All values here come from PubChem BioAssay AID624040.
